Let's look at some compounds and their measured percent inhibition of viability.
Test system: NKL (IL-2 2.5 ng/mL);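 further: normalised to DMSO-only wells as negative and benzethonium chloride as positive control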
Experiment: percent inhibition of viability; higher = more inhibition
Assay conditions: 72 h; 100 nM
Assay endpoint: percent inhibition of viability (%)

>>> print(df.to_string())
                                    compound  observed_value
 0  C#Cc1cccc(Nc2ncnc3cc(OC)c(OCCCCCCC(=O)NO)cc23)c1 [CUDC-101] (max concentration tested 10000 nM)            1.83
 1  Cn1cnc2c(F)c(Nc3ccc(Br)cc3F)c(C(=O)NOCCO)cc21 [Binimetinib] (max concentration tested 1000 nM)            43.6
 2  CN1CCC(COc2cnc(-c3cccc(Cn4nc(-c5cccc(C#N)c5)ccc4=O)c3)nc2)CC1 (max concentration tested 1000 nM)           -9.54
 3  C[C@@]1(C(=O)Nc2ccc(F)nc2)CCCN1c1nc(Nc2cc(C3CC3)n[nH]2)c2cccn2n1 (max concentration tested 10000 nM)           -14.1
 4  C=CCc1cccc(/C=N/NC(=O)CN2CCN(Cc3ccccc3)CC2)c1O [PAC-1] (max concentration tested 10000 nM)            4.48
 5  COc1cccc2cc(-c3nc([C@H]4CC[C@H](C(=O)O)CC4)n4ncnc(N)c34)[nH]c12 [OSI-027] (max concentration tested 10000 nM)            15.2
 6  Oc1ccc2c(c1)CC[C@H](c1ccccc1)[C@@H]2c1ccc(OCCN2CCCC2)cc1 [Lasofoxifene] (max concentration tested 1000 nM)           -4.01
 7  C[C@]1(c2nc3c(C(N)=O)cccc3[nH]2)CCCN1 [Veliparib] (max concentration tested 10000 nM)           -5.59
 8  CS(=O)(=O)c1ccc(C(=O)Nc2ccc(Cl)c(-c3ccccn3)c2)c(Cl)c1 [Vismodegib] (max concentration tested 10000 nM)            8.65
 9  O=c1[nH]cc(F)c(=O)[nH]1 [Fluorouracil] (max concentration tested 10000 nM)           -0.39
10  CC(C)(C)c1cc(NC(=O)Nc2ccc(-c3cn4c(n3)sc3cc(OCCN5CCOCC5)ccc34)cc2)no1 [Quizartinib] (max concentration tested 1000 nM)             6.3
11  O=C(/C=C/c1cccc(S(=O)(=O)Nc2ccccc2)c1)NO [Belinostat] (max concentration tested 10000 nM)            37.5

Data origin: the supplement of paper PMC5908809
